Test: Rat hepatocyte stability
Format: in vitro ADME
Conditions: rat hepatocytes
Measured Metric: Hepatocyte Stability (Rat) (μL/min/10^6 cells)

Compound: O=c1cc2n(cc1O)CCN(Cc1ccccc1Cl)C2 [Compound 31]
Hepatocyte Stability (Rat) (μL/min/10^6 cells): 11

Compound: O=c1cc2n(cc1O)CCN(Cc1c(F)cccc1Cl)C2 [Compound 40]
Hepatocyte Stability (Rat) (μL/min/10^6 cells): 11

* * *

Test system: P-glycoprotein (MDR1)
Test: Permeability and efflux in MDCK-MDR1 cells
Format: in vitro ADME
Settings: dog
Measured Metric: efflux ratio

Structure As Smiles: O=c1cc2n(cc1O)CCN(Cc1ccccc1)C2
efflux ratio: 1

Structure As Smiles: O=c1cc2n(cc1O)CCN(Cc1c(F)cccc1Cl)C2
efflux ratio: 1.1

Structure As Smiles: O=c1cc2n(cc1O)CCN(Cc1ccccc1Cl)C2
efflux ratio: 1

Structure As Smiles: O=c1cc2n(cc1O)CCN(Cc1ccc(Cl)cc1Cl)C2
efflux ratio: 1.8

Structure As Smiles: Cc1cccc(C)c1CN1CCn2cc(O)c(=O)cc2C1
efflux ratio: 1.3
